Data origin, for the record: the supplement of paper PMC8975748

- Test system: Saccharomyces cerevisiae BY4741 SeMeCo community
- assayRemarks: z-score of subpopulation abundance vs DMSO median, subpopulation auxotrophic for HLU; higher = larger share of this subpopulation than in DMSO controls
- setupConditions: 10 µM; 24 h; SM minimal medium; subpopulation (auxotrophy): HLU
Structures can show the parent of a compound that is named as a salt.
measuredQuantity: z-score of subpopulation abundance

**Query** # query: z-score of subpopulation abundance of entry COC(=O)C1=C(C)NC(C)=C(C(=O)OCCN2CCN(C(c3ccccc3)c3ccccc3)CC2)C1c1cccc([N+](=O)[O-])c1 (centres undefined) [Manidipine]
**Result** 1.73

**Query** For Cc1cc(O)cc(C)c1Cl then?
**Result** 0.24

**Query** For NC(=O)C(c1ccccc1)(c1ccccc1)[C@@H]1CCN(CCc2ccc3c(c2)CCO3)C1 then?
**Result** -0.45

**Query** For CN1CCC(=C2c3ccccc3CCc3sccc32)CC1 [Pizotifen Malate] then?
**Result** 0.5

**Query** For CC(=O)NS(=O)(=O)c1ccc(N)cc1 [Sulfacetamide Sodium] then?
**Result** -0.24

**Query** For CC1(C)S[C@@H]2[C@H](NC(=O)[C@H](N)c3ccccc3)C(=O)N2[C@H]1C(=O)OCOC(=O)[C@@H]1N2C(=O)C[C@H]2S(=O)(=O)C1(C)C then?
**Result** 1.83

**Query** For CC(C)(C)C(=O)C(Oc1ccc(Cl)cc1)n1ccnc1 (centres undefined) then?
**Result** 1.28

**Query** For Cc1cccc(C)c1NC(=O)C1CCCCN1C (centres undefined) [Mepivacaine HCl] then?
**Result** 0.11

**Query** For CCCNCC(O)COc1ccccc1C(=O)CCc1ccccc1 (centres undefined) [Propafenone HCl] then?
**Result** -0.61

* * *

- Test system: Saccharomyces cerevisiae BY4741 SeMeCo community
- assayRemarks: z-score of subpopulation abundance vs DMSO median, subpopulation auxotrophic for HU; higher = larger share of this subpopulation than in DMSO controls
- setupConditions: 10 µM; 24 h; SM minimal medium; subpopulation (auxotrophy): HU
Counter-ions that a name gives are not always drawn.
measuredQuantity: z-score of subpopulation abundance
Form rule: numeric answer, no unit written next to it.

Worked cases, answers included:
compound | z-score of subpopulation abundance
C[C@@H](c1nc(-c2ccc(C#N)cc2)cs1)[C@](O)(Cn1cncn1)c1cc(F)ccc1F | 8.91
CCCCCCCCCC(=O)NC1C(Oc2c3cc4cc2Oc2ccc(cc2Cl)C(OC2OC(CO)C(O)C(O)C2NC(C)=O)C2NC(=O)C(NC(=O)C4NC(=O)C4NC(=O)C(Cc5ccc(c(Cl)c5)O3)NC(=O)C(N)c3ccc(O)c(c3)Oc3cc(O)cc4c3)c3ccc(O)c(c3)-c3c(OC4OC(CO)C(O)C(O)C4O)cc(O)cc3C(C(=O)O)NC2=O)OC(CO)C(O)C1O (centres undefined) | 0.39
O=C(O)Cc1ccccc1Nc1c(Cl)cccc1Cl | -1.1

**Query** # query: z-score of subpopulation abundance of entry N[C@@H]1CCCCN(c2c(F)cc3c(=O)c(C(=O)O)cn(C4CC4)c3c2Cl)C1 [Besifloxacin HCl]
**Result** 0.44

**Query** For OCCN(CCO)c1nc(N2CCCCC2)c2nc(N(CCO)CCO)nc(N3CCCCC3)c2n1 then?
**Result** -7.22

* * *

- System: Saccharomyces cerevisiae BY4741 SeMeCo community
- assayRemarks: z-score of subpopulation abundance vs DMSO median, subpopulation auxotrophic for HLU; higher = larger share of this subpopulation than in DMSO controls
- setupConditions: 10 µM; 24 h; SM minimal medium; subpopulation (auxotrophy): HLU
measuredQuantity: z-score of subpopulation abundance

Worked cases, answers included:
compound | z-score of subpopulation abundance
C[C@@H]1C/C=C/C=C/C=C/C=C/[C@H](O[C@@H]2O[C@H](C)[C@@H](O)[C@H](N)[C@@H]2O)C[C@@H]2O[C@](O)(C[C@@H](O)C[C@H]3O[C@@H]3/C=C/C(=O)O1)C[C@H](O)[C@H]2C(=O)O [Natamycin] | 22.7
CCN(CC)CCOC(=O)c1ccc(N)cc1 [Procaine] | -1.15
CN1C(C(=O)Nc2ccccn2)=C(O)c2sc(Cl)cc2S1(=O)=O [Lornoxicam] | -0.19

**Query** # query: z-score of subpopulation abundance of entry COc1ccc2[nH]c([S@@+]([O-])Cc3ncc(C)c(OC)c3C)nc2c1 [NEXIUM (esomeprazole magnesium)]
**Result** 1.46

**Query** For COc1cc2c(cc1OC)-c1cc3ccc(OC)c(OC)c3c[n+]1CC2 [Palmatine] then?
**Result** 1.86

* * *

- System: Saccharomyces cerevisiae BY4741 SeMeCo community
- assayRemarks: z-score of subpopulation abundance vs DMSO median, subpopulation auxotrophic for LUM; higher = larger share of this subpopulation than in DMSO controls
- setupConditions: 10 µM; 24 h; SM minimal medium; subpopulation (auxotrophy): LUM
Structures can show the parent of a compound that is named as a salt.
Please note: t applies when z-score of subpopulation abundance is -0.3 or greater, and f applies otherwise.

Recorded results for 5 compounds are shown here.
compound | category
COc1ccc(CC2c3cc(OC)c(OC)cc3CC[N+]2(C)CCC(=O)OCCCCCOC(=O)CC[N+]2(C)CCc3cc(OC)c(OC)cc3C2Cc2ccc(OC)c(OC)c2)cc1OC (stereo unspecified) [Atracurium Besylate] | t
CC[C@H]1OC(=O)C[C@@H](O)[C@H](C)[C@@H](O[C@@H]2O[C@H](C)[C@@H](O)[C@H](N(C)C)[C@H]2O)[C@@H](CCN2C[C@H](C)C[C@H](C)C2)C[C@@H](C)C(=O)/C=C/C(C)=C/[C@@H]1CO[C@@H]1O[C@H](C)[C@@H](O)[C@@H](OC)[C@H]1OC | t
CCCOc1ccc(C(=O)OCCN(CC)CC)cc1N [Proparacaine HCl] | f
CC(C)[N+](C)(CCOC(=O)C1c2ccccc2Oc2ccccc21)C(C)C [Propantheline bromide] | f
CCN(CC)CC#CCOC(=O)C(O)(c1ccccc1)C1CCCCC1 (stereo unspecified) [Oxybutynin] | f

Moving on to the next compound.
**Query** Check the entry COc1cc([C@@H]2c3cc4c(cc3[C@@H](O[C@@H]3O[C@@H]5CO[C@@H](C)O[C@H]5[C@H](O)[C@H]3O)[C@H]3COC(=O)[C@H]23)OCO4)cc(OC)c1O [Etoposide] : does z-score of subpopulation abundance equal or exceed -0.3?
**Result** t

* * *

- Tested on: Saccharomyces cerevisiae BY4741 SeMeCo community
- assayRemarks: z-score of subpopulation abundance vs DMSO median, subpopulation auxotrophic for HUM; higher = larger share of this subpopulation than in DMSO controls
- setupConditions: 10 µM; 24 h; SM minimal medium; subpopulation (auxotrophy): HUM
Structures can show the parent of a compound that is named as a salt.
measuredQuantity: z-score of subpopulation abundance

Worked cases, answers included:
compound | z-score of subpopulation abundance
CC[C@H]1OC(=O)[C@H](C)[C@@H](O[C@H]2C[C@@](C)(OC)[C@@H](O)[C@H](C)O2)[C@H](C)[C@@H](O[C@@H]2O[C@H](C)C[C@H](N(C)C)[C@H]2O)[C@](C)(O)C[C@@H](C)CN(C)[C@H](C)[C@@H](O)[C@]1(C)O [Azithromycin] | 0.11
Cc1c(-c2ccc(O)cc2)n(Cc2ccc(OCCN3CCCCCC3)cc2)c2ccc(O)cc12 [Bazedoxifene Acetate] | -0.26
CN1CCC[C@@H]1Cc1c[nH]c2ccc(CCS(=O)(=O)c3ccccc3)cc12 [Eletriptan HBr] | -0.47
Cc1nc2n(c(=O)c1CCN1CCC(c3noc4cc(F)ccc34)CC1)CCCC2O (stereo unspecified) [Paliperidone] | 0.09
CC[C@@]1(O)C(=O)OCc2c1cc1n(c2=O)Cc2cc3cc(O)ccc3nc2-1 [Hydroxy Camptothecine] | -1.9

**Query** # query: z-score of subpopulation abundance of entry CCN(CC)CCOC(=O)c1ccc(N)cc1 [Procaine HCl]
**Result** -1.23

**Query** For Cc1cc(=O)n(-c2ccccc2)n1C [Antipyrine] then?
**Result** -0.77

**Query** For CN(C)CCc1c[nH]c2ccc(CS(=O)(=O)N3CCCC3)cc12 [Almotriptan Malate] then?
**Result** -0.91

**Query** For Cc1nccn1CC1CCc2c(c3ccccc3n2C)C1=O (stereo unspecified) [Ondansetron Hydrochloride Dihydrate] then?
**Result** 0.55

**Query** For Cc1c(-c2ccccc2)oc2c(C(=O)OCCN3CCCCC3)cccc2c1=O [Flavoxate HCl] then?
**Result** -0.16

**Query** For O=C(c1ccc(F)cc1)C1CCN(CCn2c(=O)[nH]c3ccccc3c2=O)CC1 [Ketanserin] then?
**Result** -0.47

**Query** For Cc1ccc(Cl)c(Nc2ccccc2C(=O)O)c1Cl [Meclofenamate Sodium] then?
**Result** -0.63

**Query** For CCCCCCCCCCCCCCCCOP(=O)([O-])OCC[N+](C)(C)C [Miltefosine] then?
**Result** 142

**Query** For C[C@]12CCC(=O)C=C1[C@@H]1C[C@@H]1[C@H]1[C@@H]3[C@@H]4C[C@@H]4[C@@]4(CCC(=O)O4)[C@@]3(C)CC[C@@H]12 [Drospirenone] then?
**Result** -0.41

**Query** For O=C(O)c1cc(-c2ccc(F)cc2F)ccc1O [Diflunisal] then?
**Result** -2.64

**Query** For C1CCN2C[C@@H]3C[C@@H](CN4CCCC[C@@H]34)[C@H]2C1 [(-)-Sparteine Sulfate] then?
**Result** 0.1

**Query** For COc1cc2c(cc1OC)-c1cc3ccc(OC)c(OC)c3c[n+]1CC2 [Palmatine] then?
**Result** 0.8

**Query** For COCCCC/C(=N\OCCN)c1ccc(C(F)(F)F)cc1 [Fluvoxamine maleate] then?
**Result** 0.06
